B1: Hairpin Ribozyme (parent)
chain: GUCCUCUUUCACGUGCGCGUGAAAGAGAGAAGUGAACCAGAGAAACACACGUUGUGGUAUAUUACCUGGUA

variants of: B1; test: self-cleavage, relative activity (ratio to wild type); higher = more cleavage; co-transcriptional
measurement.kind: self-cleavage
// response body must contain only the number

// known answers, use as guide
A41C C48U
0.183
C10U U52G
0.564
G13C C38G
0.179
U8A A49G
0.366
U52G G56C
0.0868

Ask: Tell me the measured self-cleavage of U14G G34C , please.
Result: 1.52

Ask: Please give the measured self-cleavage for this variant: G21C A41C
Result: 0.957

Ask: Fill in the blank: the reported self-cleavage of G25C A44C is ____.
Result: 0.174

Ask: Data request, read-out self-cleavage, for C4G A59C
Result: 0.15

Ask: Please give the measured self-cleavage for this variant: C3U A64U
Result: 0.238

Ask: Which measured self-cleavage value corresponds to C12U G13C ?
Result: 0.791

Ask: Which self-cleavage is reported for this variant? A41G A71C
Result: 1.34
